test system: HepG2; experiment: Anticancer activity against human HepG2 cells after 48 hrs by MTT assay; type: functional, cell-based; conditions: HepG2, 48 h
Item-by-item account of IC50
Give a bare numeral; the unit µM is implied.

# smiles_code, target_under_test, IC50 (µM)
data = [
    ("CCN(CC)[C@H]1CC[C@@]2(C)[C@@H](CC[C@@H]3[C@@H]2CC[C@@]2(C)[C@H]3C[C@H](n3cnc4ccccc43)[C@@H]2OC(C)=O)C1", "HepG2", 22.1),
]

Attention now turns to another entry.
Ask: HepG2 / IC50 / "CC(=O)O[C@H]1[C@@H](n2cnc3ccccc32)C[C@H]2[C@@H]3CC[C@H]4C[C@@H](N(C)Cc5ccccc5)CC[C@]4(C)[C@H]3CC[C@@]21C" : value?
Result: 5.14

* * *

system: HeLa; assay: Anticancer activity against human HeLa cells after 48 hrs by MTT assay; format: functional, cell-based
endpoint_label: pIC50
By convention, pIC50 is the negative base-10 log of a molar concentration.

Worked examples follow.
# compound, target_under_test, pIC50
rows = [
    ("COc1cccc2c1C(=O)c1c(O)c3c(c(O)c1C2=O)C[C@@](O)(C(=O)CO)C[C@@H]3O[C@H]1C[C@H](N)[C@H](O)[C@H](C)O1 [DOXORUBICIN]", "HeLa", 6.64),
    ("CC(=O)O[C@H]1[C@@H](n2cnc3ccccc32)C[C@H]2[C@@H]3CC[C@H]4C[C@@H](N(C)Cc5ccccc5)CC[C@]4(C)[C@H]3CC[C@@]21C", "HeLa", 5.22),
    ("CC(=O)O[C@H]1[C@@H](n2cncn2)C[C@H]2[C@@H]3CC[C@H]4C[C@@H](N5CCOCC5)CC[C@]4(C)[C@H]3CC[C@@]21C", "HeLa", 4.65),
    ("CC(=O)O[C@H]1[C@@H](n2cncn2)C[C@H]2[C@@H]3CC[C@H]4C[C@@H](N(C)c5ccccc5)CC[C@]4(C)[C@H]3CC[C@@]21C", "HeLa", 4.70),
    ("CC(=O)O[C@H]1[C@@H](n2ccnn2)C[C@H]2[C@@H]3CC[C@H]4C[C@@H](N(C)c5ccccc5)CC[C@]4(C)[C@H]3CC[C@@]21C", "HeLa", 4.14),
    ("CC(=O)O[C@H]1[C@@H](n2nnc3ccccc32)C[C@H]2[C@@H]3CC[C@H]4C[C@@H](N(C)Cc5ccccc5)CC[C@]4(C)[C@H]3CC[C@@]21C", "HeLa", 4.95),
]

Ask: Would you mind telling me what pIC50 value was observed for "CC(=O)O[C@H]1[C@@H](n2nnc3ccccc32)C[C@H]2[C@@H]3CC[C@H]4C[C@@H](N5CCCCC5)CC[C@]4(C)[C@H]3CC[C@@]21C" ?
Result: 4.53

* * *

system: HeLa; assay: Anticancer activity against human HeLa cells after 48 hrs by MTT assay; type: functional, cell-based
endpoint_label: IC50

Worked examples follow.
# smiles_code, IC50
measured = [
    ("CC(=O)O[C@H]1[C@@H](n2nnc3ccccc32)C[C@H]2[C@@H]3CC[C@H]4C[C@@H](N5CCOCC5)CC[C@]4(C)[C@H]3CC[C@@]21C", "19.8 µM"),
    ("CC(=O)O[C@H]1[C@@H](n2cnc3ccccc32)C[C@H]2[C@@H]3CC[C@H]4C[C@@H](N(C)c5ccccc5)CC[C@]4(C)[C@H]3CC[C@@]21C", "4.51 µM"),
]

Ask: Would you mind telling me what IC50 value was observed for "CC(=O)O[C@H]1[C@@H](n2cncn2)C[C@H]2[C@@H]3CC[C@H]4C[C@@H](N5CCN(C)CC5)CC[C@]4(C)[C@H]3CC[C@@]21C" ?
Result: > 50 µM
